- Test system: SARS-CoV-2 spike S1 protein (SARS-CoV-2, UniProt P0DTC2 16-685)
For each entry below, report its koff value.
Write down the numeric answer in s⁻¹ and omit the unit.

IN: Form field: reported koff of AB-009281 (antibody, V domains shown) VH: EVQLVETGGGLIQPGGSLRLSCAASGFTVSSNYMSWVRQAPGKGLEWVSVIYSGGSTYYADSVKGRFTISRDNSKNTLYLQMNSLRAEDTAVYYCARDLYYYGMDVWGQGTTVTVSS VL: DIQLTQSPSFLSASVGDRVTITCRASQGISSYLAWYQQKPGKAPKLLIYAASTLQSGVPSRFSGSGSGTEFTLTISSLQPEDFATYYCQQLNSYPTFGQGTKVEIK
OUT: 0.00136

IN: Form field: reported koff of AB-009346 (antibody, V domains shown) VH: EVQLVESGGGVVRPGGSLRLSCAASGFTFDDYGMSWVRQAPGKGLEWVSGINWNGGSTGYADSVKGRFTISRDNAKNSLYLQMNSLRAEDTALYYCARWPLLGISGYYHYYMDVWGKGTTVTVSS VL: QSALTQPRSVSGSPGQSVTISCTGTSSDVGGYNYVSWYQQHPGKAPKLMIYDVSKRPSGVPDRFSGSKSGNTASLTISGLQAEDEADYYCCSYAGSYTLLFGGGTKLIVL
OUT: 0.000523

IN: Form field: reported koff of AB-009271 (antibody, V domains shown) VH: EVQLVESGGGLIQPGGSLRLSCAASGFIVSSNYMSWVRQAPGKGLEWVSVIYSGGSTYYADSVKGRFTISRDNSKNTLYLQMNSLRAEDTAVYYCARDYGDFYFDYWGQGTLVTVSS VL: EIVMTQSPATLSVSPGERATLSCRASQSVSSNLAWYQQKPGQAPRLLIYGASTRATGIPARFSGSGSGTEFTLTISSLQSEDFAVYYCQQYYNWPRTFGQGTKVEIK
OUT: 0.0042

IN: Form field: reported koff of AB-009620 (antibody, V domains shown) VH: QITLKESGPTLVKPTQTLTLTCTFSGFSLSTSGVGVGWIRQPPGKALEWLALIYWDDDKRYSPSLKSRLTITKDTSKNQVVLTMTNMDPVDTATYYCAHHEVATVFDYWGQGTLVTVSS VL: QSALTQPASVSGSPGQSITISCTGTSSDVGAYNYVSWYQQHPGKAPKLMIYEVSNRPSGVSNRFSGSKSGNTASLTISGLQAEDEADYYCSSYTSSSTVFGGGTKLTVL
OUT: 0.00078

IN: Form field: reported koff of AB-009769 (antibody, V domains shown) VH: EVQLVESGGGLVQPGGSLRLSCAASGFTFSSYWMSWVRQAPGKGLEWVANIKQDGSEKYYVDSVKGRFTISRDNAKNSLYLQMNSLRAEDTAVYYCARSPEVLWFGDPVLDNWFDPWGQGTLVTVSS VL: SYELTQPPSVSVSPGQTARITCSGDALPKQYAYWYQQKPGQAPVLVIYKDSERPSGIPERFSGSSSGTTVTLTISGVQAEDEADYYCQSADSSGTYPVVFGGGTKLTVL
OUT: 0.00194
